Attribution: patent US20210032351A1

Please go through the items and note down their EC50.
biological target: human EGFRvIII protein on the cell surface (human) (UniProt P00533); test: FACS on U87MG-EGFRvIII cells
Give the quantity in nM, number only.

Data request: Give the measured EC50 of Humanized antibody h75G7C6-3 (antibody, human IgG1, V domains shown) VH: EVQLVQSGAEVKKPGASVKVSCKASGYTFTDYNMDWVKQAPGQGLEWIGDINPNNADTIYNQKFKGRVTLTVDKSTSTVYMELSSLRSEDTAVYYCARGDYDGYYPVYYAMDYWGQGTTVTVSS VL: ENVLTQSPATLSLSPGERATLSCRASSSVSSSYLHWYQQKPGQSPRLLIFSTSNLAAGIPARFSGSGSGTDYTLTISSLEPEDFAVYYCQQYSGYPLTFGGGTKVEIK .
Data returned: 5.6

Data request: Entry Humanized antibody h75G7C6-6 (antibody, human IgG1, V domains shown) VH: QVQLVQSGAEVKKPGASVKVSCKASGYTFTDYNMDWVRQAPGQGLEWMGDINPNNADTIYNQKFKGRVTMTRDTSTSTVYMELSSLRSEDTAVYYCARGDYDGYYPVYYAMDYWGQGTTVTVSS VL: ENVLTQSPATLSLSPGERATLSCRASSSVSSSYLHWYQQKPGQAPRLLIFSTSNLAAGIPARFSGSGSGTDYTLTISSLEPEDFAVYYCQQYSGYPLTFGGGTKVEIK has what EC50?
Data returned: 5.96
